Experiment: Pharmacokinetic study in rats
Type: in vivo, Sprague-Dawley (SD) rats
Settings: Sprague-Dawley, rat, plasma; male SD rats, IV, dose 0.5 mg/kg
READOUT TYPE: clearance (mL/min/kg)

[a] CCn1c(-c2cc(C#CCN3CCCOCC3)cnc2[C@H](C)OC)c2c3cc(ccc31)-c1csc(n1)C[C@H](NC(=O)CC1CC1)C(=O)N1CCC[C@H](N1)C(=O)OCC(C)(C)C2 (atropisomer, axis not shown; (Ra))
[b] CCn1c(-c2cc(C#CCN3CCC3)cnc2[C@H](C)OC)c2c3cc(ccc31)-c1csc(n1)C[C@H](NC(=O)[C@H]1[C@H](C)[C@@H]1C)C(=O)N1CCC[C@H](N1)C(=O)OCC(C)(C)C2 (single isomer, unassigned)
In terms of reported clearance, does a or b have the smaller number? Pick one; state its label. b
(b: 2.52 mL/min/kg, a: 6 mL/min/kg)

###

System: p-ERK in AsPC-1 cells (KRAS G12D mutation)
Assay: Cell p-ERK assay (HTRF) in AsPC-1 cells
Assay type: cell-based, human
Conditions: Homo sapiens, ASPC1, 3 h, AsPC-1 cells, 3 h compound incubation, HTRF p-ERK T202/Y204; read-out: AsPC-1 p-ERK IC50
pIC50: −log10 of the molar value.
READOUT TYPE: pIC50

[a] CCn1c(-c2cc(N3CCN(C)CC3)cnc2[C@H](C)OC)c2c3cc(ccc31)-c1csc(n1)C[C@H](Nc1nnc3ccccn13)C(=O)N1CCC[C@H](N1)C(=O)OCC(C)(C)C2 (atropisomer, axis not shown; (Ra))
[b] CCn1c(-c2cc(C#CC(C)N3CCC3)cnc2[C@H](C)OC)c2c3cc(ccc31)-c1csc(n1)C[C@H](NC(=O)[C@H]1[C@H](C)[C@@H]1C)C(=O)N1CCC[C@H](N1)C(=O)OCC(C)(C)C2 (atropisomer, axis not shown; (Sa))
Rank a against b by their pIC50 values and give the higher one. Pick one; state its label. b
(b: 9.17, a: 7.58)

###

Tested on: p-ERK in NCI-H441 cells (KRAS G12V mutation)
Assay: Cell p-ERK assay (HTRF) in NCI-H441 cells
Format: cell-based, human
Details: NCI-H441 cells, 3 h compound incubation, HTRF p-ERK T202/Y204; read-out: H441 p-ERK IC50
pIC50: −log10 of the molar value.
READOUT TYPE: pIC50

In the examples that follow, each entry is paired with its recorded pIC50.
| COMPOUND | READOUT NUMBER |
| --- | --- |
| CCn1c(-c2cc(OCC(C)(C)N3CCS(=O)(=O)CC3)cnc2[C@H](C)OC)c2c3cc(ccc31)-c1csc(n1)C[C@H](NC(=O)[C@H]1[C@H](C)[C@@H]1C)C(=O)N1CCC[C@H](N1)C(=O)OCC(C)(C)C2 [Compound Z667A] | 8.80 |
| CCn1c(-c2cc(OCCN3CC[S+]([O-])CC3)cnc2[C@H](C)OC)c2c3cc(ccc31)-c1csc(n1)C[C@H](NC(=O)[C@H]1[C@H](C)[C@@H]1C)C(=O)N1CCC[C@H](N1)C(=O)OCC(C)(C)C2 (atropisomer, axis not shown; (Ra)) [Compound Z600] | 9.29 |

[a] C=C1CCN2CCN(c3cnc([C@H](C)OC)c(-c4c5c6cc(ccc6n4CC)-c4csc(n4)C[C@H](NC(=O)[C@H]4[C@H](C)[C@@H]4C)C(=O)N4CCC[C@H](N4)C(=O)OCC(C)(C)C5)c3)C[C@H]2C1 (atropisomer, axis not shown; (Ra)) [Compound Z309]
[b] CCn1c(-c2cc(OCC3(N4CCS(=O)(=O)CC4)CC3)cnc2[C@H](C)OC)c2c3cc(ccc31)-c1csc(n1)C[C@H](NC(=O)[C@H]1[C@H](C)[C@@H]1C)C(=O)N1CCC[C@H](N1)C(=O)OCC(C)(C)C2
In terms of reported pIC50, does a or b have the smaller number? Pick one; state its label. a
(a: 9.02, b: 9.48)

###

Test system: p-ERK in NCI-H441 cells (KRAS G12V mutation)
Assay: Cell p-ERK assay (HTRF) in NCI-H441 cells
Format: cell-based, human
Settings: NCI-H441 cells, 3 h compound incubation, HTRF p-ERK T202/Y204; read-out: H441 p-ERK IC50
pIC50: −log10 of the molar value.
READOUT TYPE: pIC50

[P] CCn1c(-c2cc(OCC3(N4CCCOCC4)CC3)cnc2[C@H](C)OC)c2c3cc(ccc31)-c1csc(n1)C[C@H](NC(=O)[C@H]1[C@H](C)[C@@H]1C)C(=O)N1CCC[C@H](N1)C(=O)OCC1(CC1)C2 [Compound Z329]
[Q] CO[C@@H](C)c1ncc(OCCN2CCS(=O)(=O)CC2)cc1-c1c2c3cc(ccc3n1C(C)C)-c1csc(n1)C[C@H](NC(=O)[C@H]1[C@H](C)[C@@H]1C)C(=O)N1CCC[C@H](N1)C(=O)OCC(C)(C)C2 (atropisomer, axis not shown; (Ra))
[R] CCn1c(-c2cc(C#C[C@@H]3CCCN3C)cnc2[C@H](C)OC)c2c3cc(ccc31)-c1csc(n1)C[C@H](NC(=O)[C@H]1[C@H](C)[C@@H]1C)C(=O)N1CCC[C@H](N1)C(=O)OCC(C)(C)C2 (atropisomer, axis not shown; (Ra)) [Compound Z598]
[S] CCn1c(-c2cc(C#CCN3CCC(=O)N(C)CC3)cnc2[C@H](C)OC)c2c3cc(ccc31)-c1csc(n1)C[C@H](Nc1nnc3cc(C)ccn13)C(=O)N1CCC[C@H](N1)C(=O)OCC(C)(C)C2 (atropisomer, axis not shown; (Ra))
Please list these in order of increasing pIC50. Thank you! Lab note: final answer is the ordered label list. P, S, R, Q

###

Tested on: p-ERK in AsPC-1 cells (KRAS G12D mutation)
Experiment: Cell p-ERK assay (HTRF) in AsPC-1 cells
Format: cell-based, human
Conditions: Homo sapiens, ASPC1, 3 h, AsPC-1 cells, 3 h compound incubation, HTRF p-ERK T202/Y204; read-out: AsPC-1 p-ERK IC50
pIC50: −log10 of the molar value.
READOUT TYPE: pIC50

| COMPOUND | pIC50 |
| --- | --- |
| CCn1c(-c2cc(C#CCN3CCCOCC3)cnc2[C@H](C)OC)c2c3cc(ccc31)-c1csc(n1)C[C@H](NC(=O)[C@H]1C[C@@H]1C)C(=O)N1CCC[C@H](N1)C(=O)OCC(C)(C)C2 (single isomer, unassigned) | 9.29 |
| CCn1c(-c2cc(OC[C@H]3CCCN3Cc3ccn(C)n3)cnc2[C@H](C)OC)c2c3cc(ccc31)-c1csc(n1)C[C@H](NC(=O)[C@H]1[C@H](C)[C@@H]1C)C(=O)N1CCC[C@H](N1)C(=O)OCC(C)(C)C2 (atropisomer, axis not shown; (Ra)) | 9.18 |

###

Experiment: Pharmacokinetic study in rats
Assay type: in vivo, Sprague-Dawley (SD) rats
Details: male SD rats, PO (intragastric), dose 10 mg/kg
READOUT TYPE: Cmax (ng/mL)

| COMPOUND | READOUT NUMBER |
| --- | --- |
| CCn1c(-c2cc(C#CCN(C)CCOC)cnc2[C@H](C)OC)c2c3cc(ccc31)-c1csc(n1)C[C@H](NC(=O)[C@H]1[C@H](C)[C@@H]1C)C(=O)N1CCC[C@H](N1)C(=O)OCC(C)(C)C2 (atropisomer, axis not shown; (Ra)) | 2110 |
| CCn1c(-c2cc(C#CCN3CCOC[C@H]3C)cnc2[C@H](C)OC)c2c3cc(ccc31)-c1csc(n1)C[C@H](NC(=O)[C@H]1[C@H](C)[C@@H]1C)C(=O)N1CCCC(N1)C(=O)OCC(C)(C)C2 (atropisomer, axis not shown; (Ra)) | 401 |
| CCn1c(-c2cc(C#CCN3C4CCC3COC4)cnc2[C@H](C)OC)c2c3cc(ccc31)-c1csc(n1)C[C@H](NC(=O)[C@H]1[C@H](C)[C@@H]1C)C(=O)N1CCC[C@H](N1)C(=O)OCC(C)(C)C2 (atropisomer, axis not shown; (Ra)) | 1867 |

[I] CO[C@@H](C)c1ncc(C#CCN2CCCOCC2)cc1-c1c2c3cc(ccc3n1CC(F)(F)F)-c1csc(n1)C[C@H](NC(=O)[C@H]1[C@H](C)[C@@H]1C)C(=O)N1CCC[C@H](N1)C(=O)OCC(C)(C)C2 (atropisomer, axis not shown; (Ra))
[II] CCn1c(-c2cc(C#CCN3CCCOCC3)cnc2C(C)C)c2c3cc(ccc31)-c1csc(n1)C[C@H](NC(=O)[C@H]1[C@H](C)[C@@H]1C)C(=O)N1CCC[C@H](N1)C(=O)OCC(C)(C)C2 (atropisomer, axis not shown; (Sa))
In terms of reported Cmax, does I or II have the smaller number? Pick one; state its label. I
(I: 681 ng/mL, II: 4303 ng/mL)
